Every entry's value here was drawn from paper PMC11740121.

Target: PRMT5 (protein arginine methyltransferase 5) (Homo sapiens)
Sequence (O14744 1-292): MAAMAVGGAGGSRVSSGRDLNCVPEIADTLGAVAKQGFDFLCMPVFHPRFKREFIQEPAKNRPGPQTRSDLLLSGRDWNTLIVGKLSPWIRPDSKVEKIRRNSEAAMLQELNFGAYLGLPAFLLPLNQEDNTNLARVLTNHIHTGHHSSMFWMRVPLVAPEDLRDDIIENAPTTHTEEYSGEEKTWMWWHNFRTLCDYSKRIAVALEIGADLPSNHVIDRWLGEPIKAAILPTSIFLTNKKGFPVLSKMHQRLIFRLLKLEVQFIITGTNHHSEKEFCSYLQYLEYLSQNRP
Assay: SPR with immobilized PRMT5 N-terminal TIM barrel
Assay type: binding
quantity_kind: Kd (µM)
Express the result in µM but write the number alone.

**Q:** # lookup: Kd of O=C(Cc1csc(-c2ccc(C(F)(F)F)cc2)n1)Nc1ccc2oc(=O)[nH]c2c1
**A:** 21.5
